Target: CDK4 CCND1 (human) (UniProt P24385+P11802)
Sequence (P11802 whole entry, looked up): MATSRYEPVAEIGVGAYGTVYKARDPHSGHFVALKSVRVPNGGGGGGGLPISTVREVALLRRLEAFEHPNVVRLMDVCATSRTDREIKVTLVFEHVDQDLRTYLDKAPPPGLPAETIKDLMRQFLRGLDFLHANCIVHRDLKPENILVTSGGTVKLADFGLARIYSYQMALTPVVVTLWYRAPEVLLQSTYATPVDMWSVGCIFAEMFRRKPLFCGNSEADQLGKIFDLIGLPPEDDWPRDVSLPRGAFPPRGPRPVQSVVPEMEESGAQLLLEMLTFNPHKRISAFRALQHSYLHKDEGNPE
Sequence (P24385 whole entry, looked up): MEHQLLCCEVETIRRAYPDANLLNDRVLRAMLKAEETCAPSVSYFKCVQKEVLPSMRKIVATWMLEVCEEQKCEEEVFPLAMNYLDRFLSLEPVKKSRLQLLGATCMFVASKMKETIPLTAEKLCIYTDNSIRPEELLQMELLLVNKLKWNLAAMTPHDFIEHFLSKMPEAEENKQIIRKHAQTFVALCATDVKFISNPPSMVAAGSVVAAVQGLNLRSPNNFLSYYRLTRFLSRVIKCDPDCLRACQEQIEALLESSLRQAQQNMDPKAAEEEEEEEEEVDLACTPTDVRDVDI
Experiment: radiometric filter-binding kinase assay, Kinase HotSpot
Conditions: compound 0.5 µM; ATP 10 µM
ENDPOINT: residual activity (%)
Numbers only, in %.

Reference set (3 entries):
In [3]: df
Out[3]:
                           molecular_string                             target_system  assay_result
0  Cc1cncc2cccc(S(=O)(=O)N3CCCN(C(=O)CN)C[C@H]3C)c12  CDK4 CCND1 (human) (UniProt P24385+P11802)           114
1    O=C1NC(=O)c2c1c1c3ccccc3[nH]c1n1cncc21  CDK4 CCND1 (human) (UniProt P24385+P11802)            86
2  O=C(c1cc2cc(O)ccc2[nH]1)c1cc2cc(O)ccc2[nH]1  CDK4 CCND1 (human) (UniProt P24385+P11802)          91.5

Record residual activity per entry; entries follow.
1. COc1ccc(S(=O)(=O)N(CCO)c2ccccc2CN(C)C/C=C/c2ccc(Cl)cc2)cc1
2. N#C/C(=C\c1ccc(O)c(O)c1)C(=O)NCc1ccccc1
3. Cc1cccc(-c2nc(C(C)(C)C)[nH]c2-c2ccc3c(c2)OCO3)n1

[94.6, 109, 105]

###

Molecular target: CLK4 (human) (UniProt Q9HAZ1)
Sequence (Q9HAZ1 whole entry, looked up): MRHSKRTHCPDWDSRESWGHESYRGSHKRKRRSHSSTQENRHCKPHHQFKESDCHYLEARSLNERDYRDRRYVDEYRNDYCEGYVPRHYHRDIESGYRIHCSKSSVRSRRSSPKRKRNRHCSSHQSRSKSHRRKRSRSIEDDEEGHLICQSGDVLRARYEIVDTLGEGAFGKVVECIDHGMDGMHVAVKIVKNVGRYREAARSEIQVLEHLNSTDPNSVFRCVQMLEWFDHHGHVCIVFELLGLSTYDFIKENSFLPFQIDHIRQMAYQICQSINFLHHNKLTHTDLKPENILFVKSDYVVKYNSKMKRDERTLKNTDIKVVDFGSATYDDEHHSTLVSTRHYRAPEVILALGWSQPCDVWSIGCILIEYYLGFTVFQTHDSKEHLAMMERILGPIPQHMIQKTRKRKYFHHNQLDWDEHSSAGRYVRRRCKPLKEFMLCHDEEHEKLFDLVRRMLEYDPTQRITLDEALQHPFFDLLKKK
Assay: radiometric filter-binding kinase assay, Kinase HotSpot
Conditions: compound 0.5 µM; ATP 10 µM
Answer each item with its documented residual activity.
Numbers only, in %.

Consider the reported residual activity for these compounds:
>>> df
                           molecular_string  unit_symbol  assay_result
0      CN(C)c1ccc(/C=C2\C(=O)Nc3ccccc32)cc1            %          94.1
1   N#C/C(=C\c1ccc(O)c(O)c1)C(=O)NCc1ccccc1            %            94
2  Cc1cccc(-c2nc(C(C)(C)C)[nH]c2-c2ccc3c(c2)OCO3)n1            %          95.8

I'm hoping you can list residual activity for every compound here, please.
1. O=C1Nc2ccc(Br)cc2/C1=C\c1cc2c([nH]1)CCCC2
2. O=C(c1cc2cc(O)ccc2[nH]1)c1cc2cc(O)ccc2[nH]1
3. CCCCc1c(-c2ccc(OC)cc2)[nH]c2nccnc12
4. CN(C)S(=O)(=O)c1ccc2c(c1)/C(=C/c1cc3c([nH]1)CCCC3)C(=O)N2
5. COc1ccc2c(c1)c(C1=C(c3c[nH]c4ccccc34)C(=O)NC1=O)cn2CCCN(C)C
6. Ic1cccc(CSc2nnc(-c3ccncc3)o2)c1
7. Cn1c2ccccc2c2c3c(c4c5ccccc5n(CCC#N)c4c21)CNC3=O
8. Fc1ccc(-c2nc3n(c2-c2ccncc2)CCS3)cc1

[84.5, 79.1, 73.2, 50.7, 32.8, 90, 66.2, 106]

###

Would you mind telling me the reported residual activity of each entry?
Target: MUSK (human) (UniProt O15146)
Sequence (O15146 whole entry, looked up): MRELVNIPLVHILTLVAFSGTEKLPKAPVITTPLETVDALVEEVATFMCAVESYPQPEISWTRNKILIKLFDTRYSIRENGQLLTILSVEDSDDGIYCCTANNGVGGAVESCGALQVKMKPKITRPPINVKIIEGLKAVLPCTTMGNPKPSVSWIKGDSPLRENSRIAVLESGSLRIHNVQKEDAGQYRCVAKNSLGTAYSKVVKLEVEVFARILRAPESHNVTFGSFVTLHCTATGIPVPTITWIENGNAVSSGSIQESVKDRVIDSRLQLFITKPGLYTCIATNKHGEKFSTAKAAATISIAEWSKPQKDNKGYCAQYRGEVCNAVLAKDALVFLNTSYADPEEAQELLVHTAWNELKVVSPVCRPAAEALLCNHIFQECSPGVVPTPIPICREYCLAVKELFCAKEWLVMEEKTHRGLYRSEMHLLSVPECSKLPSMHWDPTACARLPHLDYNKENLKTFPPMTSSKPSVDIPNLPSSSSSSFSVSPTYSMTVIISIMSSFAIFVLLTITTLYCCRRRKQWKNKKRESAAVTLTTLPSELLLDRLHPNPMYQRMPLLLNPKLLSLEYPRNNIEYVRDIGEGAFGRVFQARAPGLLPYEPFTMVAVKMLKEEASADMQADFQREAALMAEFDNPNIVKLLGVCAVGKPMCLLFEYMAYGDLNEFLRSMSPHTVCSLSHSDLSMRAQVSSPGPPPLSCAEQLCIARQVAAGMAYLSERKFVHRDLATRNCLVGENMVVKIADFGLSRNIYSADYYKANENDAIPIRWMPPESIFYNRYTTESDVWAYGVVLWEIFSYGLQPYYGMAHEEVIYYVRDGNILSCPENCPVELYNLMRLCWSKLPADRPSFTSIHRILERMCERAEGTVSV
Assay: radiometric filter-binding kinase assay, Kinase HotSpot
Conditions: compound 0.5 µM; ATP 10 µM
Numbers only, in %.

Consider the worked cases shown below.
                           molecular_string  unit_symbol  assay_result
0   N#C/C(=C\c1ccc(O)c(O)c1)C(=O)NCc1ccccc1            %          97.9
1  CN(C)S(=O)(=O)c1ccc2c(c1)/C(=C/c1cc3c([nH]1)CCCC3)C(=O)N2            %          82.8
2  Cc1cccc(-c2nc(C(C)(C)C)[nH]c2-c2ccc3c(c2)OCO3)n1            %          99.1
3               O=C1c2ccccc2-c2nc3nnnn3nc21            %           107
4               c1ccc2c(-c3ccncc3)c[nH]c2c1            %          78.9

Field: residual activity. Fill in for each record below.
1. O=C1Nc2ccc(Br)cc2/C1=C\c1cc2c([nH]1)CCCC2
2. COc1cc2ncnc(Nc3ccc(Oc4ccccc4)cc3)c2cc1OC
3. Ic1cccc(CSc2nnc(-c3ccncc3)o2)c1
4. NC(=O)c1cccc(-c2cc(Nc3ccc(OC(F)(F)F)cc3)ncn2)c1

1. 88.6
2. 89.8
3. 94.1
4. 95.9

Give one value of residual activity per listed compound.
1. C[C@@H]1CCN(C(=O)CC#N)C[C@@H]1N(C)c1ncnc2[nH]ccc12
2. COc1ccc2c(c1)/C(=C/c1cnc[nH]1)C(O)=N2
3. CS(=O)(=O)CCNCc1ccc(-c2ccc3ncnc(Nc4ccc(OCc5cccc(F)c5)c(Cl)c4)c3c2)o1

[103, 78.3, 96.5]

Please go through the list and note residual activity for each compound.
1. COc1cc2ncnc(Nc3ccc(OCc4ccccc4)cc3)c2cc1OC
2. Fc1ccc(-c2nc3n(c2-c2ccncc2)CCS3)cc1
3. N#Cc1c[nH]c2c[nH]/c(=N\Cc3cccnc3)cc2/c1=N\c1ccc(F)c(Cl)c1
4. COc1ccc(C(=O)Nc2sc3c(c2C(N)=O)CCCC3)cc1OC
5. CN(C)CCCn1cc(C2=C(c3c[nH]c4ccccc34)C(=O)NC2=O)c2ccccc21
6. Cc1nc(-c2ccccc2)c(-c2ccncc2)o1

[99.3, 91.1, 55.6, 79.4, 71.9, 95.9]

Could you report residual activity for every entry in the following list?
1. Cn1c2ccccc2c2c3c(c4c5ccccc5n(CCC#N)c4c21)CNC3=O
2. O=C(c1cc2cc(O)ccc2[nH]1)c1cc2cc(O)ccc2[nH]1
3. O=C1C(Cl)=C(N2C(=O)CCC2=O)C(=O)c2ccccc21
4. COc1cc(Nc2c(C#N)cnc3cc(OCCCN4CCN(C)CC4)c(OC)cc23)c(Cl)cc1Cl

[34.8, 55.1, 104, 81.7]
